assay: chemical genetic growth profiling, strain panel (AID 1159580);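 also: tested at 20 µM; growth read once vehicle control cultures reached saturation at 30 °C; 1 = growth at the plate median or of vehicle wells; lower values mean less growth of the strain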; settings: S. cerevisiae deletion strains, growth OD, locus YLR342W, strain FKS1, hits give low values
In all, about 5,500 compounds went through this assay and about 2,000 (36%) were called active. About 18% were inconclusive and are not listed. The list shows a part of the results.
normalized growth for assorted molecules
Test readout: normalized growth

molecule="N=c1ccn2c(n1)OC1C(O)C(CO)OC12 (stereo not given)" test_readout="normalized growth" value_measured=1.01
molecule="CCn1cc(C(=O)O)c(=O)c2cc(F)c(N3CCNC(C)C3)c(F)c21 (stereo not given)" test_readout="normalized growth" value_measured=0.957
molecule="C/C=C(\\C)C(=O)O[C@H]1C[C@@H](OC(C)=O)[C@@]2(C(=O)OC)CO[C@@H]3C2[C@]12CO[C@](O)(C(=O)OC)[C@H]2[C@](C)(C12O[C@@]1(C)[C@H]1C[C@@H]2OC2OC=C[C@@]21O)[C@@H]3O (stereo not given in full)" test_readout="normalized growth" value_measured=0.983
molecule="OCC(O)CN1CCN(c2ccccc2)CC1 (stereo not given)" test_readout="normalized growth" value_measured=0.993
molecule="CO/N=C1/CN(c2nc3c(cc2F)c(=O)c(C(=O)O)cn3C2CC2)CC1CN (stereo not given)" test_readout="normalized growth" value_measured=0.958
molecule="COc1c(N2CCNC(C)C2)c(F)cc2c(=O)c(C(=O)O)cn(C3CC3)c12 (stereo not given)" test_readout="normalized growth" value_measured=0.972
molecule=CCN(CC)C(=O)N1CCN(C)CC1 test_readout="normalized growth" value_measured=0.98
molecule=C#CCN(C)Cc1ccccc1 test_readout="normalized growth" value_measured=1.03
molecule=CCn1cc(C(=O)O)c(=O)c2cc(F)c(N3CCNCC3)nc21 test_readout="normalized growth" value_measured=0.981
molecule="COc1cc2nc(N(C)CCCNC(=O)C3CCCO3)nc(N)c2cc1OC (stereo not given)" test_readout="normalized growth" value_measured=0.995

###

test: chemical genetic growth profiling, strain panel (AID 1159580); settings: S. cerevisiae deletion strains, growth OD, locus YBL061C, strain skt5, hits give low values
In all, about 5,500 compounds went through this assay and about 2,000 (36%) were called active. Another 18% or so got no clear call; they are omitted. The list shows a part of the results.
Test readout: normalized growth

molecule=CCC[C@H](N[C@@H](C)C(=O)N1[C@H](C(=O)O)C[C@@H]2CCCC[C@@H]21)C(=O)OCC test_readout="normalized growth" value_measured="1.01 (inactive)"
molecule=O=S(=O)(O)c1cc(N=C=S)ccc1/C=C/c1ccc(N=C=S)cc1S(=O)(=O)O test_readout="normalized growth" value_measured="1.03 (inactive)"
molecule=COC(=O)c1cc(=O)c(O)c2c(O)c(O)ccc2c1 test_readout="normalized growth" value_measured="0.988 (inactive)"
molecule=Oc1cc(O)c2c(c1)O[C@H](c1ccc(O)c(O)c1)[C@@H](O)C2 test_readout="normalized growth" value_measured="1.01 (inactive)"
molecule=Oc1cc(O)c2c(c1)O[C@H](c1ccc(O)c(O)c1)[C@H](O)C2 test_readout="normalized growth" value_measured="1.02 (inactive)"
molecule=CN(C)CCN(Cc1cccs1)c1ccccn1 test_readout="normalized growth" value_measured="1 (inactive)"
molecule=O=c1cccc2ccc(O)c(O)c2c1O test_readout="normalized growth" value_measured="0.901 (active)"
molecule=COc1ccc(CN(CCN(C)C)c2ccccn2)cc1 test_readout="normalized growth" value_measured="1.01 (inactive)"
molecule=CC[C@@]1(O)C[C@H](O[C@H]2C[C@H](N(C)C)[C@H](O)[C@H](C)O2)c2c(cc3c(c2O)C(=O)c2c(O)ccc(O)c2C3=O)[C@H]1C(=O)OC test_readout="normalized growth" value_measured="0.875 (active)"
molecule=Oc1cc(O)c2c(c1)O[C@H](c1cc(O)c(O)c(O)c1)[C@H](O)C2 test_readout="normalized growth" value_measured="1.02 (inactive)"
molecule="COc1ccc(C2CNC(=O)C2)cc1OC1CCCC1 (stereo unspecified)" test_readout="normalized growth" value_measured="1.01 (inactive)"

###

normalized growth values for the compounds below.
assay: chemical genetic growth profiling, strain panel (AID 1159580); settings: S. cerevisiae deletion strains, growth OD, locus YBL061C, strain skt5, hits give low values
Out of some 5,500 compounds screened, about 2,000 (36%) were called active. Another 18% or so got no clear call; they are omitted. The list shows a part of the results.
Test readout: normalized growth

compound=c1ccc2c(c1)sc1ccccc12 value_measured="0.811 (active)"
compound=COc1ccc(C(=O)CC(=O)O)c2c1C=CC(C)(C)O2 value_measured="0.999 (inactive)"
compound=O=C(O[C@@H]1Cc2c(O)cc(O)cc2O[C@@H]1c1ccc(O)c(O)c1)c1cc(O)c(O)c(O)c1 value_measured="0.955 (inactive)"
compound="C=C1C2CC[C@@]3(C)[C@H](c4ccoc4)OC(=O)C[C@]13O[C@H]1CC(=O)C(C)(C)[C@H](C(OC(C)=O)C(=O)OC)[C@@]21C (some centres undefined)" value_measured="1.02 (inactive)"
compound=O=C(Oc1cc(OC(=O)c2ccccc2)c2c(c1)O[C@H](c1ccc(OC(=O)c3ccccc3)c(OC(=O)c3ccccc3)c1)[C@@H](OC(=O)c1ccccc1)C2)c1ccccc1 value_measured="0.99 (inactive)"
compound=CC[C@@]1(O)C[C@H](O)c2c(cc3c(c2O)C(=O)c2c(O)ccc(O)c2C3=O)[C@H]1C(=O)OC value_measured="0.89 (active)"
compound=CC(=O)Oc1cc(OC(C)=O)c2c(c1)O[C@H](c1ccc(OC(C)=O)c(OC(C)=O)c1)[C@@H](OC(C)=O)C2 value_measured="1 (inactive)"
compound=O=C(NC(=O)c1ccccc1Cl)Nc1ccc(OC(F)(F)F)cc1 value_measured="1.02 (inactive)"
compound="CC1(O)CC2C(CC1O)C2(C)C (centres undefined)" value_measured="0.988 (inactive)"

###

assay: chemical genetic growth profiling, strain panel (AID 1159580);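 also: tested at 20 µM; growth read once vehicle control cultures reached saturation at 30 °C; 1 = growth at the plate median or of vehicle wells; lower values mean less growth of the strain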; conditions: S. cerevisiae deletion strains, growth OD, locus YKL068W, hits give low values
In all, about 5,500 compounds went through this assay and about 2,000 (36%) were called active. Inconclusive results (about 18%) are left out. Some of the results follow.
The entries below come with measured normalized growth values attached.
Test readout: normalized growth

smiles_input=O=C(O[C@@H]1Cc2c(O)cc(O)cc2O[C@@H]1c1ccc(O)c(O)c1)c1cc(O)c(O)c(O)c1 value_measured=1.01
smiles_input=O=C(O[C@@H]1Cc2c(O)cc(O)cc2O[C@@H]1c1cc(O)c(O)c(O)c1)c1cc(O)c(O)c(O)c1 value_measured=1
smiles_input=COc1cc(OC)c2c(c1)O[C@H](c1cc(OC)c(OC)c(OC)c1)[C@H](OC(=O)c1cc(OC)c(OC)c(OC)c1)C2 value_measured=1.01
smiles_input=O=C(Oc1cc(OC(=O)c2ccccc2)c2c(c1)O[C@H](c1ccc(OC(=O)c3ccccc3)c(OC(=O)c3ccccc3)c1)[C@@H](OC(=O)c1ccccc1)C2)c1ccccc1 value_measured=1.02

###

Quick reference for normalized growth among some molecules
test: chemical genetic growth profiling, strain panel (AID 1159580);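 also: tested at 20 µM; growth read once vehicle control cultures reached saturation at 30 °C; 1 = growth at the plate median or of vehicle wells; lower values mean less growth of the strain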; settings: S. cerevisiae deletion strains, growth OD, locus YKL068W, hits give low values
Among all 5,500 compounds or so, about 2,000 (36%) were called active. Roughly 18% stayed inconclusive and do not appear here. The list shows a part of the results.
Test readout: normalized growth

molecule="C[C@]12CCC(=O)C=C1C=CC1C2CC[C@@]2(C)C1CC[C@@]21CCC(=O)O1 (stereo not given in full)" value_measured=0.966
molecule="C[C@]12CCC(=O)C=C1C=CC1C2CC[C@@]2(C)C1CC[C@@]2(O)CCC(=O)O (stereo not given in full)" value_measured=0.995
molecule=CN1CCC(OC(c2ccccc2)c2ccccc2)CC1 value_measured=0.983
molecule="Cc1ccccc1C(OCCN(C)C)c1ccccc1 (stereo not given)" value_measured=0.996
molecule="COc1cc([C@@H]2c3cc4c(cc3C(OC3O[C@@H]5COC(C)O[C@H]5[C@H](O)[C@H]3O)C3COC(=O)[C@@H]32)OCO4)cc(OC)c1O (stereo not given in full)" value_measured=0.995

###

assay: chemical genetic growth profiling, strain panel (AID 1159580);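 also: tested at 20 µM; growth read once vehicle control cultures reached saturation at 30 °C; 1 = growth at the plate median or of vehicle wells; lower values mean less growth of the strain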; conditions: S. cerevisiae deletion strains, growth OD, locus YMR125W, strain sto1, hits give low values
In all, about 5,500 compounds went through this assay and about 2,000 (36%) were called active. Roughly 18% stayed inconclusive and do not appear here. This is one part of the list.
Output Criterion met for records whose normalized growth is lower than 1, Criterion not met for records at or above 1.

molecule="Clc1ccc(C(OCCN2CCCCC2)c2ccccc2)cc1 (stereo unspecified)" category="Criterion not met"
molecule=O=C1NCC2(CCN(CCc3ccccc3)CC2)O1 category="Criterion met"
molecule="CN(C)CCCC1(c2ccc(F)cc2)OCc2cc(C#N)ccc21 (stereo unspecified)" category="Criterion met"
molecule=CC1(C)S[C@@H]2[C@H](NC(=O)[C@H](N)c3ccccc3)C(=O)N2[C@H]1C(=O)O category="Criterion met"
molecule=CN1CCC(OC(c2ccccc2)c2ccccc2)CC1 category="Criterion met"
